The reported measurements were obtained from the METLIN SMRT retention time set (Domingo-Almenara et al. 2019).

assay: gradient 5% acetonitrile 3 min, to 50% in 2 min, to 85% in 15 min, held 3 min, 100 µL/min; settings: column: Zorbax Extend-C18 2.1 x 50 mm; eluents: water / acetonitrile, 0.1% formic acid
measured.attribute: RP-LC retention time
Dear colleague, please send the value followed by its unit.

Q. Any idea what its RP-LC retention time is? The compound is COC(=O)c1ccccc1S(=O)(=O)N1CCc2c(c(-c3nnc(-c4ccccc4F)o3)nn2C)C1
A. 873 s

Q. Same lookup for CN(C)CCNCc1ccc(-c2cc(Cl)cc(Cl)c2)o1 , please.
A. 597 s

Q. Same lookup for Cc1ccc(N2C(=O)CN(S(=O)(=O)c3ccccc3)CC2(C)C(=O)NC2CCCCC2)cc1 (stereo not given) , please.
A. 1000 s

Q. Same lookup for Cc1nnc(-c2ccc3ccn(CC(=O)N4CCN(C5CCCCC5)CC4)c3c2)o1 , please.
A. 620 s

Q. Same lookup for CCn1c(-c2ccccc2)cc(C(=O)NC)c1C , please.
A. 807 s

Q. Same lookup for COc1cccc(-n2c(N3CCC(C(=O)NC4CC4)CC3)nc3ccsc3c2=O)c1 , please.
A. 682 s

Q. Same lookup for CCOc1ccccc1NC(=O)Cn1ncc2c(N3CCN(c4ccccn4)CC3)ncnc21 , please.
A. 628 s

Q. Same lookup for CCc1ccccc1NC(=O)C1CCCN(c2ncnc3c2nc2n3CCCCC2)C1 (stereo not given) , please.
A. 802 s

Q. Same lookup for CN1C(C)(C)CCCC1(C)C , please.
A. 614 s

Q. Same lookup for O=C(NCc1cccc(Cl)c1)c1ccc(-c2nc3cccnc3n2C2CCCCC2)cc1 , please.
A. 1050 s

Q. Same lookup for COc1cc(C(=O)N2CCCC2c2nc(-c3ccccc3)no2)cc(OC)c1OC (stereo not given) , please.
A. 910 s

Q. Same lookup for Cc1ccc(SCC(=O)Nc2nc(-c3ccccc3)cs2)cc1 , please.
A. 1100 s

Q. Same lookup for CCCN1C(=O)COc2ccc(-c3noc(COc4ccccc4)n3)cc21 , please.
A. 1100 s

Q. Same lookup for CCn1c(=O)sc2cc(S(=O)(=O)N3CCC(C(=O)Nc4ccc(C)cc4C)CC3)ccc21 , please.
A. 932 s

Q. Same lookup for Cc1nnc(SCC(=O)NCCc2ccccc2)s1 , please.
A. 650 s

Q. Same lookup for Cc1ccc(CNC(=O)Cn2ncn3c(C)c(C(=O)NCc4ccc(C)cc4)c(C)c3c2=O)cc1 , please.
A. 851 s

Q. Same lookup for COc1ccc(NC(=O)Cn2nc3nc(N4CCCCC4C)ccn3c2=O)cc1 (stereo not given) , please.
A. 755 s

Q. Same lookup for COc1cccc(NC(=O)Cn2nc3cc(C)nc(Nc4ccc(F)c(C)c4)n3c2=O)c1 , please.
A. 1040 s

Q. Same lookup for Cc1cc(Cl)ccc1OCC(=O)Nc1nc(-c2ccc(Br)cc2)cs1 , please.
A. 1310 s

Q. Same lookup for CCC(C)C(=O)N1CCCN(C2=NS(=O)(=O)C(c3ccc(F)cc3)=C2C)CC1 (stereo not given) , please.
A. 795 s
